Molecular target: T1, SARS-CoV-2 RBD-SD1 with murine IgG2a Fc part, produced in High Five cells (SARS-CoV-2, UniProt P0DTC2)
T1 construct: source: High Five insect cells, transient transfection, purified (Protein A)
Experiment: ELISA
Conditions: both partners purified
Consider the cut-off 0.4 nM. If the recorded EC50 is strictly smaller, the label is Fulfilled; if not, the label is Not fulfilled.

1. STE73-2B2 scFv-Fc (scFv, V domains shown, also called scFv-hFc; source: Expi293F, transient transfection, purified (Protein A)) VH: QVQLVQSGAEVKKPGASVKVSCKASGYTFTGYYMHWVRQAPGQGLEWMGWINPNSGGTNYAQKFQGRVTITRDTSASTAYMELSSLRSEDTAVYYCARVSGWYFGAFDIWGQGTMVTVSS VL: LPVLTQPHSLSESPGKTVNISCTGSSGSIASNYVQWYQQRPGSAPTTVIYEDSHRPSGVPDRFSGSIDSSSNSASLSISGLKTEDEADYYCQSYDSSNNQWVFGGGTKLTVL; Fulfilled
2. STE72-1B6 scFv-Fc (scFv, V domains shown, also called scFv-hFc; source: Expi293F, transient transfection, purified (Protein A)) VH: QVKLVQSGGGLVQPGGSLRLSCAASGFTFSSYAMSWVRQAPGKGLEWVSGISGSGGSTYYADSVKGRFTISRDNSKNTLYLQVNSLRAEDTAVYYCAKAPYGDFRGLWYFDYWGQGTLVTVSS VL: DIVMTQSPFSVSASVGDRVTISCRASQDIRSWLAWYQQKPGKAPQLLIYDASSLQSGVPSRFSGSGSGTDFTLTISSLQPEDFATYYCQQADSVPLTFGGGTKVEIQ; Not fulfilled
3. STE73-2G8 IgG (antibody, V domains shown, source: Expi293F, transfected, purified (Protein A); copies: 2 + 2) VH: QVQLVQSGGGLVKPGGSLRLSCAASGITVSSNYMSWVRQAPGKGLEWVSILYSGGTTFYTDSVKGRFTISRDNSKNTLHLQMNSLRAEDTAVYYCARWSGTYYDYWGQGTLVTVSS VL: SSELTQDPAVSVALGQTVRITCQGDSLRSYYASWYQQKPGQAPVLVIYGKNNRPSGIPDRFSGSSSGNTASLTITGAQAEDEADYYCNSRDSTNDPVLFGAGTKLTVL; Not fulfilled
4. STE73-6C8 scFv-Fc (scFv, V domains shown, also called scFv-hFc; source: Expi293F, transient transfection, purified (Protein A)) VH: QVQLQQSGAEVKKPGSSVKVSCKASGGTFSSYAISWVRQAPGQGLEWMGRIIPILGIANYAQKFQGRVTITADKSTSTAYMELSSLRSEDTAVYYCARSIAALNWFDPWGQGTLVTVSS VL: NFMLTQPHSVSESPGKTVTIPCTGSRGSIANNYVQWYRQRPGRAPTTVIFEDNQRPSGVPDRFSGSIDRSSNSASLTISGLETEDEADYYCQSYDGSNVIFGGGTKLTVL; Not fulfilled

Value source: paper PMC7952403
